In this section we review reported EC50 (pM) values for a set of binders.
Test target: SARS-CoV-2 spike protein (full length, wild type) (SARS-CoV-2, UniProt P0DTC2 14-1273)
Measurement description: cell-based or functional assay
Measurement kind: EC50 (pM)

• SARS2-1D5_f3 (antibody, V domains shown, also called antibody number 2) VH: QVQLVQSGAEVKKPGASVKVSCKASGYTFTSYDITWVRQATGQGLEWMGWMSPNSGNTGYAQKFQGRVTMTRNTSISTAYMELNSLRSEDTAVYYCARFGYGSGALDYYYYGLDVWGQGTTVTVSS VL: EIVLTQSPGTLSLSPGDRATLSCRASQSVRSSHLAWYQQKPGQAPRLLIYGASSRATGIPDRFSGSGSGTDFSLTISRLEPEDFAVYYCQQFGSSPITFGQGTRLEIK = 49
• SARS2-5H12_f3 (antibody, V domains shown, also called antibody number 7) VH: QVQLVQSGAEVKKPGTSVKVSCKTSGYTFPSYDIIWVRQATGQGLEWMGWMSPKNGNTGFAQRFQGRVTMTRNTSISTAYMELSSLRSEDTAVYYCARFGYGSGALGYYYYGLDVWGQGTTVTVSS VL: EIVLTQSPGTLSLSPGERATLSCRASQSVRSSHLAWYRQKPGQAPRLLIYGASSRATGIPDRFSGRGSGTDFTLTISRLEPEDFAVYYCQQYNFSPITFGQGTRLEIK = 377
• SARS2-7C10_f3 (antibody, V domains shown, also called antibody number 8) VH: QVQLVQSGAEVKKPGASVKVSCKASGYTFTSYDITWVRQATGQGLEWMGWMSPNSGNTGYAQKFQGRVTMTRNTSISTAYMELRSLRSEDTAVYYCARFGYGSGALDYYYYGLDVWGQGTTVTVSS VL: EIVLTQSPGTLSLSPGERATLSCRASQSVRSSHLAWSQQKPGQAPRLLIYGASSRATGIPDRFSGSGSGTDFTLTISRLEPEDFAVYYCQQFGSSPITFGQGTRLEIK = 152
• SARS2-10D6_f3 (antibody, V domains shown, also called antibody number 11; family A) VH: EVQLVETGGGLIQPGGSLRLSCAASGITVSSNYMNWVRQAPGKGLEWVSVIYSGGSTYYADSVKGRFTISRDNSKNTLYLQMNSLRAEDTAVYYCARDLELAGAFDIWGQGTMVTVSL VL: DIQLTQSPSFLSASVGDRVTITCRASQGISSYLAWYQQKPGKAPKVLIYAASTLQSGVPSRFSGSGSGTEFTLTISSLQPEDFATYYCQQLNSYPPSTFGQGTKLEIK = 1020
• SARS2-5D7_f3 (antibody, V domains shown, also called antibody number 6) VH: QVQLVQSGAEVKKPGTSVKVSCKTSGYTFTSYDIIWVRQATGQGLEWMGWMSPKNGNTGYAQRFQGRVTMTRNTSISTAYMELSSLRSEDTAVYYCARFGYGSGALDYYYYGLDVWGQGTTVTVSS VL: EIVLTQSPGTLSLSPGERATLSCRASQSVRSSHLAWYRQKPGQAPRLLIYGASSRATGIPDRFSGRGSGTDFTLTISRLEPEDFAVYYCQQYNISPITFGQGTRLEIK = 284
